Consider the following molecules and their measured solubility kinetic at 24 h readings.
Assay: Aqueous kinetic solubility of compound in pH 7.4 solution incubated for 24 hrs
Type: physicochemical
Details: aqueous solution pH 7.4, pH 7.4; read-out: Kinetic_solubility
Please respond with the number in µg/mL and leave the unit unwritten.

MOLECULE	solubility kinetic at 24 h [µg/mL]
Ic1ccccc1CN[C@@H]1C2CCN(CC2)[C@@H]1C(c1ccccc1)c1ccccc1	31

stdin: Give its solubility kinetic at 24 h value. Item: c1ccc2c(c1)CC(N1CCNCC1)c1ccccc1S2 (stereo unspecified)
stdout: 87.1

stdin: Can you look up the measured solubility kinetic at 24 h of CN1CCN(C2Cc3ccccc3Sc3ccc(Cl)cc32)CC1 (stereo unspecified) [CLOROTEPINE] for me?
stdout: 34.9

stdin: For the molecule Clc1ccc2c(c1)C(N1CCNCC1)Cc1ccccc1S2 (stereo unspecified) , what solubility kinetic at 24 h is on record?
stdout: 38.1
